Provenance of the data: the supplement of paper PMC10567573

B1: ZMYND11 (parent)
chain: YCSIKCQQEHWHAEHKRTCRRKR

Variants of: B1
Experiment: protein stability index of a GFP-peptide fusion (GPS, HEK-293T) (PSI 1-6); higher = more stable;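 further: lentivirally expressed fusions sorted by FACS into six bins by GFP to DsRed ratio, PSI derived from sequencing read proportions per bin multiplied by bin number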
Conditions: c terminus: native
Recorded measurements of protein stability index, one per entry
Give a plain numeric answer without units written out.

Take a look at these entries with their results.
1. H10Q	2.45
2. K16C	2.74
3. C19H	2.71
4. Y1K	3.12
5. C19K	2.3
6. A13H	3.55
7. C19G	2.71
8. H15R	2.18

Quick one: protein stability index of "T18H" ?
2.5

Quick one: protein stability index of "K22N" ?
1.37
